target: Mitotic checkpoint serine/threonine-protein kinase BUB1 (Homo sapiens); experiment: Selectivity interaction (Kinase panel (literature)) EUB0001549a BUB1
Sequence (O43683 whole entry): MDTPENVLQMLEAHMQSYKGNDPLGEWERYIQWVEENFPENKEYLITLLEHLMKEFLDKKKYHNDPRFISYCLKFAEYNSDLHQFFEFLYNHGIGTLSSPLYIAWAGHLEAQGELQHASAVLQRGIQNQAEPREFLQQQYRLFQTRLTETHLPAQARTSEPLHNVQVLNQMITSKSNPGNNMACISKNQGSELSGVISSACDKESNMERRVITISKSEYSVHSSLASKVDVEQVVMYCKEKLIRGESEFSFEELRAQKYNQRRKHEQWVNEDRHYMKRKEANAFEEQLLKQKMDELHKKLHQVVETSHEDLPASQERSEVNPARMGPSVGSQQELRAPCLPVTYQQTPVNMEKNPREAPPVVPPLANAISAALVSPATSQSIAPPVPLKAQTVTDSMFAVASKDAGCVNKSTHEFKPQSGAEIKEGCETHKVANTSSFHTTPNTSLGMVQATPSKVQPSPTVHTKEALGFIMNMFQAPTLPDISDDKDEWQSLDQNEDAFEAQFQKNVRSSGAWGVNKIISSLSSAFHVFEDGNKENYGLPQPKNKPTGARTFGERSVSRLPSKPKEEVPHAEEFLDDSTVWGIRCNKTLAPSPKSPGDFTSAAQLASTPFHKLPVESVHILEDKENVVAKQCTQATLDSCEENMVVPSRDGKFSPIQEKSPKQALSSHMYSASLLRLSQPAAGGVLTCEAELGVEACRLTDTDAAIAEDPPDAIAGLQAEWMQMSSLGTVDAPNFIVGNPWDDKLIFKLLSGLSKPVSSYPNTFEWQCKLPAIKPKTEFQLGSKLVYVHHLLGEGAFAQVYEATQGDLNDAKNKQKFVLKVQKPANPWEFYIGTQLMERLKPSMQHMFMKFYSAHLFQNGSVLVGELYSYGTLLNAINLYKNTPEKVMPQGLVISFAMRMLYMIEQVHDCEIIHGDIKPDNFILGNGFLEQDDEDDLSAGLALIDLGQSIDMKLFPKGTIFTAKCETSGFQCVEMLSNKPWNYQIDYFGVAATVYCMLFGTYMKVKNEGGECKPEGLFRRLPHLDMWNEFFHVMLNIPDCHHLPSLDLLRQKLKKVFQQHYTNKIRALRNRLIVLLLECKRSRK
readout.kind: IC50

> print(dat)
                                        mol  measured
1  COc1ccccc1Nc1nc(-c2nn(Cc3c(F)cc(OCCCO)cc3F)c3ccccc23)ncc1OC   > 20 µM

---

molecular target: 5-hydroxytryptamine receptor 3A (Homo sapiens, UniProt P46098); test: Selectivity interaction (Serotonin 5HT3 receptor assay, human recombinant ) EUB0000877a HTR3A
Sequence (P46098 whole entry): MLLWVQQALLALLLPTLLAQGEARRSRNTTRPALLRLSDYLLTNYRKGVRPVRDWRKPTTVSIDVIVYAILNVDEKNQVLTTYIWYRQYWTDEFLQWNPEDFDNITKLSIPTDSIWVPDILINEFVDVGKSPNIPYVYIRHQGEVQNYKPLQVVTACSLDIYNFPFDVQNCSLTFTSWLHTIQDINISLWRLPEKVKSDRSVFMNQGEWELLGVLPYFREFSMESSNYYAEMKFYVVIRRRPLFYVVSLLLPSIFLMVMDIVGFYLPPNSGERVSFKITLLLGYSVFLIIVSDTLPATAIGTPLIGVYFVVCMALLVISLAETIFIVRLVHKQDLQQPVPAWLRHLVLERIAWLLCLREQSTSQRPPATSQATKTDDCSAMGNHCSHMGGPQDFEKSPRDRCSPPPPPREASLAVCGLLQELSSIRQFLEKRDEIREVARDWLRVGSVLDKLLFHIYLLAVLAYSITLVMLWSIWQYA
pIC50: −log10 of the molar value.
readout.kind: pIC50

> print(dat)
                                        mol  readout.kind  measured
1  CCC(=O)N1CC[C@H](Nc2ncnc3c2CN(c2cnc(OC)c(C(F)(F)F)c2)CC3)C1         pIC50    < 4.52

---

biological target: UniProtKB O14744; assay: Selectivity interaction (Scintillation proximity assays) EUB0000255b PRMT5
Sequence (O14744 whole entry): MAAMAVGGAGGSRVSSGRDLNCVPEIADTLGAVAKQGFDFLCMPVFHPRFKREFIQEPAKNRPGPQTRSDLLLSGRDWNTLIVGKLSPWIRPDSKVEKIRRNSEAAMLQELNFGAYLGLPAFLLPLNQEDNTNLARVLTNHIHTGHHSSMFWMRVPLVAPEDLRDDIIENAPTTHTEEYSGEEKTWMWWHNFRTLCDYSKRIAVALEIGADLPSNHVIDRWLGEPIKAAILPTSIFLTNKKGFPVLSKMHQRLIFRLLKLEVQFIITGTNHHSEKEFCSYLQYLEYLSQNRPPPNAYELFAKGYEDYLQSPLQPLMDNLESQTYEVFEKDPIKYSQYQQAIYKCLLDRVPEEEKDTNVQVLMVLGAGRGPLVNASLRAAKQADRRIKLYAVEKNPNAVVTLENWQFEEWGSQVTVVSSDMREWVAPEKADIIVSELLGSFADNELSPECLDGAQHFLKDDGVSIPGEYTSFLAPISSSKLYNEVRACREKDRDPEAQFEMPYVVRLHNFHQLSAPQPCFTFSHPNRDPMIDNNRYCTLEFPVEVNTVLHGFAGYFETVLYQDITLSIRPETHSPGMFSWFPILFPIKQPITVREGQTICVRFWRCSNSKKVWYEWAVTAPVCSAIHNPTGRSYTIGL
pIC50: −log10 of the molar value.
readout.kind: pIC50

> print(dat)
                                        mol         tested.on  measured
1  COCCN1CCC(c2cc(CN(C)C(=O)c3cccc(Oc4ccccc4)c3)ccn2)CC1  UniProtKB O14744    < 5.00

---

molecular target: Protein kinase C alpha type (Homo sapiens); assay: Selectivity interaction (Kinase panel (33PanQinase(R) Activity Assay)) EUB0000877a PRKCA
readout.kind: IC50

> print(dat)
                                   compound  measured
1  CCC(=O)N1CC[C@H](Nc2ncnc3c2CN(c2cnc(OC)c(C(F)(F)F)c2)CC3)C1 [LENIOLISIB]   > 10 µM

---

target: Tyrosine-protein kinase SYK (Homo sapiens, UniProt P43405); test: Selectivity interaction (TR-FRET binding assay) EUB0000644a SYK
readout.kind: IC50

> print(dat)
                                   compound                                 tested.on  measured
1  CC[C@@H]1CN(C(=O)NCC(F)(F)F)C[C@@H]1c1cnc2cnc3[nH]ccc3n12 [UPADACITINIB]  Tyrosine-protein kinase SYK (Homo sapiens, UniProt P43405)   > 10 µM

---

molecular target: Cyclin-dependent kinase 2 (Homo sapiens, UniProt P24941); test: Selectivity interaction (Kinase panel (Enzymatic assay, microfluidic mobility shift readout, Caliper lifesciences, conc. ATP = Km for each kinase)) EUB0000678a CDK2
pIC50: −log10 of the molar value.
readout.kind: pIC50

> print(dat)
                                        mol  readout.kind  measured
1  CCN1CCN(c2ccc(Nc3cc(N(C)C(=O)Nc4c(Cl)c(OC)cc(OC)c4Cl)ncn3)cc2)CC1         pIC50    < 5.00

---

Target: UniProtKB P08172
Sequence (P08172 whole entry): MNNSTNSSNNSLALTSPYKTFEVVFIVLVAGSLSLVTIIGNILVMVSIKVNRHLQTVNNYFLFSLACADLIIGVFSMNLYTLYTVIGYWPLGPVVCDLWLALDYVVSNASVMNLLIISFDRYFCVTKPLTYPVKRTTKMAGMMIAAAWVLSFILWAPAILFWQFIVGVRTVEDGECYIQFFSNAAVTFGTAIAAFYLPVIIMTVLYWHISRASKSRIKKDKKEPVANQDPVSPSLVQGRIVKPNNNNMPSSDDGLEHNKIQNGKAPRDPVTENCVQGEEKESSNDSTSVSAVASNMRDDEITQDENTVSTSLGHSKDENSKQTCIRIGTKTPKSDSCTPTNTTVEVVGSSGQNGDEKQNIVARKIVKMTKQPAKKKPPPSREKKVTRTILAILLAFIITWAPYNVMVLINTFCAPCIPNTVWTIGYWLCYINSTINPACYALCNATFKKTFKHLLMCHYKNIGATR
Experiment: Selectivity interaction (Muscarinic M2 Calcium flux assay, agonist and antagonist mode ) EUB0000877a CHRM2
readout.kind: IC50

> print(dat)
                                   compound  measured
1  CCC(=O)N1CC[C@H](Nc2ncnc3c2CN(c2cnc(OC)c(C(F)(F)F)c2)CC3)C1 [LENIOLISIB]   > 30 µM

FYI, the data here is from ChEMBL document CHEMBL5465560.
